# Test system: Bacillus subtilis NBIMCC 3562
# Format: cell-based
# cond: broth dilution, 0 to 320 µg/mL, 24 h; NI = no inhibition monitored
Non-standard residues stand in square brackets, D forms with d. Residues, ends and D or L forms follow the SMILES beside them. Dab = NCC[C@H](N)C(=O)O
measured.quantity: MIC, B. subtilis 3562
Lab note: write values as number then unit, every time.

Task: Which value of MIC, B. subtilis 3562 has been reported for CC[C@H](C)[C@H](NC(=O)CNC(=O)[C@H](CO)NC(=O)[C@H](CC(C)C)NC(=O)[C@@H](NC(=O)[C@H](CCN)NC(=O)CNC(=O)[C@@H](NC(=O)[C@H](CC(C)C)NC(=O)[C@@H]1CCCN1C(=O)[C@H](CC(C)C)NC(=O)[C@@H](N)Cc1ccccc1)[C@@H](C)CC)C(C)C)C(=O)N[C@@H](CC(C)C)C(N)=O [DTDab, FLPLIG-Dab-VLSGIL-NH2] (H-FLPLIG[Dab]VLSGIL-NH2; N-terminus assumed) in the records?
Result: 160 µg/mL

---

# System: MCF-12F cells
# method: MTT antiproliferative assay, MCF-12F
# Type: cell-based, human
# cond: 72 h, non-tumorigenic cell line, read-out: Mean IC50 ± SD, MCF-12F
Non-standard residues stand in square brackets, D forms with d. Residues, ends and D or L forms follow the SMILES beside them. Orn = NCCC[C@H](N)C(=O)O
measured.quantity: IC50

Task: What value of measured IC50 is listed for CC[C@H](C)[C@H](NC(=O)CNC(=O)[C@H](CO)NC(=O)[C@H](CC(C)C)NC(=O)[C@@H](NC(=O)[C@H](CCCCN)NC(=O)CNC(=O)[C@@H](NC(=O)[C@H](CC(C)C)NC(=O)[C@@H]1CCCN1C(=O)[C@H](CC(C)C)NC(=O)[C@@H](N)Cc1ccccc1)[C@@H](C)CC)C(C)C)C(=O)N[C@@H](CC(C)C)C(N)=O [DTF, FLPLIG-K-VLSGIL-NH2, reference compound] (H-FLPLIGKVLSGIL-NH2) ?
Result: 100 µM

Task: Look up IC50 for this compound: CC[C@H](C)[C@H](NC(=O)CNC(=O)[C@H](CO)NC(=O)[C@H](CC(C)C)NC(=O)[C@@H](NC(=O)[C@H](CCCN)NC(=O)CNC(=O)[C@@H](NC(=O)[C@H](CC(C)C)NC(=O)[C@@H]1CCCN1C(=O)[C@H](CC(C)C)NC(=O)[C@@H](N)Cc1ccccc1)[C@@H](C)CC)C(C)C)C(=O)N[C@@H](CC(C)C)C(N)=O [DTOrn, FLPLIG-Orn-VLSGIL-NH2] (H-FLPLIG[Orn]VLSGIL-NH2; N-terminus assumed)
Result: 306 µM

Task: Consider the compound CC[C@H](C)[C@H](NC(=O)CNC(=O)[C@H](CO)NC(=O)[C@H](CC(C)C)NC(=O)[C@@H](NC(=O)[C@H](CCCNC(=N)N)NC(=O)CNC(=O)[C@@H](NC(=O)[C@H](CC(C)C)NC(=O)[C@@H]1CCCN1C(=O)[C@H](CC(C)C)NC(=O)[C@@H](N)Cc1ccccc1)[C@@H](C)CC)C(C)C)C(=O)N[C@@H](CC(C)C)C(N)=O [DTA, FLPLIG-R-VLSGIL-NH2, reference compound] (H-FLPLIGRVLSGIL-NH2) and give its measured IC50.
Result: 139 µM
